All values here come from paper PMC5137443.

molecular target: POT1;TPP1 (WT) (Homo sapiens;Homo sapiens, UniProt Q9NUX5;Q96AP0 1-634;3-248, |); assay: filter binding
Sequence (Q9NUX5 whole entry, chain 1 of 2): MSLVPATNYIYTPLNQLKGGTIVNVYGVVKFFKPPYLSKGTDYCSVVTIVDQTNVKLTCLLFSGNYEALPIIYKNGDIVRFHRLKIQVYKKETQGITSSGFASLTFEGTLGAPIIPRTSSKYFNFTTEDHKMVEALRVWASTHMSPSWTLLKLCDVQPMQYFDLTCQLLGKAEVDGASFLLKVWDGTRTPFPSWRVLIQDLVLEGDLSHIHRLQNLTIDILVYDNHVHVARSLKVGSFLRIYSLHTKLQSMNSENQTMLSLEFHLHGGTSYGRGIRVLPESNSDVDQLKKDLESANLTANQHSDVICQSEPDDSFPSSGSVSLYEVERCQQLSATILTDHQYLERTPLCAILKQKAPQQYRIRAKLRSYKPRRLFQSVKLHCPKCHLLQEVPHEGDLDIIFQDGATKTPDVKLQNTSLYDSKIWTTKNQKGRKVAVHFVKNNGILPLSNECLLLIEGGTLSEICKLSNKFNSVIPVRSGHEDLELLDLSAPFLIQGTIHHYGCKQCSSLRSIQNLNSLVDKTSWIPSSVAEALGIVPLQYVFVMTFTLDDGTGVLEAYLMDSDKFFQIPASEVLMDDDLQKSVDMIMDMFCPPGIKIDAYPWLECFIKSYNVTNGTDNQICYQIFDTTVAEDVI
Sequence (Q96AP0 3-248, chain 2 of 2): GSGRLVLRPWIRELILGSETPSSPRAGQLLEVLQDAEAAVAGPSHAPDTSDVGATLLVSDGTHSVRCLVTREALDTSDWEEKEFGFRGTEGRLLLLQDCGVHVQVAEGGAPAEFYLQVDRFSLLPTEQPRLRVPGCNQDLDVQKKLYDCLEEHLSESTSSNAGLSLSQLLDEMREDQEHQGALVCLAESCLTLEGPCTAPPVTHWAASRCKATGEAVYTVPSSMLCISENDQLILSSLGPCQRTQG
Endpoint label: Kd

| Binder | Result |
| --- | --- |
| GGTTAGGGTTAG (ssDNA) [hT12wt, d(GGTTAG)2] | 3.8 nM |
